test: binders from COS7 lysate, DM2A8 probe, primary screen, torsin A project, cell lysate, small-molecule microarray, fluorescence 635/667 (AID 1065); settings: higher = more signal, COS7 lysate expressing mutant human TOR1A
Please use True whenever composite z-score is not below 1, and False whenever it is.

Query string: Does Cc1ccc(S(=O)(=O)N2[C@@H](c3ccccc3)C(C(=O)O)=CC[C@H]2c2ccc(C#N)cc2)cc1 have a reported composite z-score of at least 1?
Result string: False

Query string: Reported composite z-score reaches at least 1 for CCCCCN1CC=CC23O[C@@H]4C=CCOC(=O)[C@@H]4[C@H]2C(=O)N(CCCCCO)[C@@H]3C1=O (stereo not given in full) ?
Result string: True

Query string: Hello, I need to know if C=CC[C@@]1(C(=O)O)N=C(c2ccc(OCCCO)cc2)O[C@@H]1c1ccccc1CN=[N+]=[N-] has measured composite z-score not below 1. Thanks!
Result string: False

Query string: In plain terms: is recorded composite z-score at least 1 for CC(=O)c1ccc(C(O)C2C=CC3C(=O)NC(=O)C3N2Nc2ccc(Cl)cc2Cl)cc1 (stereo not given) ?
Result string: False

Query string: Does composite z-score meet or surpass 1 for C=C(COC)C(=O)CC[C@@H](OC(C)=O)c1ccc(OCCO)cc1 ?
Result string: True
